Could you please report measured DC50 for the items listed next?
Target: GSPT1 (Homo sapiens, UniProt P15170+Q96SW2)
Construct: host or cells: HEK293 LgBiT cell line
Sequence (P15170 whole entry): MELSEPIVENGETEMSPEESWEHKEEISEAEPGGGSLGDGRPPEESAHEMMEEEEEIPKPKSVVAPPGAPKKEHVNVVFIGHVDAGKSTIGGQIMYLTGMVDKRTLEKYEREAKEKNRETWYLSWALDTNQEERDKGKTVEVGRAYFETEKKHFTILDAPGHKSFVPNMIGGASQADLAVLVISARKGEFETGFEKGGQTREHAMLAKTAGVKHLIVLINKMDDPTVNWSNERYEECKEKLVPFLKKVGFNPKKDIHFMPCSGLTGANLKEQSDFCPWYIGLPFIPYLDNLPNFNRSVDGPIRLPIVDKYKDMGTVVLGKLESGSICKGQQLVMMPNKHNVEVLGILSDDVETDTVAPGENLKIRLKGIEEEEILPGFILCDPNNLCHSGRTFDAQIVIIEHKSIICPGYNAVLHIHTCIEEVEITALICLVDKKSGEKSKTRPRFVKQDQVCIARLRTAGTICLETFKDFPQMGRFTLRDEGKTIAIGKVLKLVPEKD
Sequence (Q96SW2 whole entry): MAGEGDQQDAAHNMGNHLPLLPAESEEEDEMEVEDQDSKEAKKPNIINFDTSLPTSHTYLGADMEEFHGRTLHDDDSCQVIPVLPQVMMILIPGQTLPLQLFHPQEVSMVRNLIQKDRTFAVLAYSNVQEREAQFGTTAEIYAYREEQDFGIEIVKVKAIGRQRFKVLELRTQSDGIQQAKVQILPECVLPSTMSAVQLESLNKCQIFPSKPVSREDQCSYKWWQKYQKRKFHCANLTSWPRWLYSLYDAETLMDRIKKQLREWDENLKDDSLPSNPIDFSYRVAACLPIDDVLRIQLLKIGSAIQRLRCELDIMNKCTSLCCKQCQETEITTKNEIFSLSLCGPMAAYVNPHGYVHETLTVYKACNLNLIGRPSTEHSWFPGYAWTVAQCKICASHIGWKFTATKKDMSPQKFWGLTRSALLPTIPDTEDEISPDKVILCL
Sequence (Q16531 whole entry partner): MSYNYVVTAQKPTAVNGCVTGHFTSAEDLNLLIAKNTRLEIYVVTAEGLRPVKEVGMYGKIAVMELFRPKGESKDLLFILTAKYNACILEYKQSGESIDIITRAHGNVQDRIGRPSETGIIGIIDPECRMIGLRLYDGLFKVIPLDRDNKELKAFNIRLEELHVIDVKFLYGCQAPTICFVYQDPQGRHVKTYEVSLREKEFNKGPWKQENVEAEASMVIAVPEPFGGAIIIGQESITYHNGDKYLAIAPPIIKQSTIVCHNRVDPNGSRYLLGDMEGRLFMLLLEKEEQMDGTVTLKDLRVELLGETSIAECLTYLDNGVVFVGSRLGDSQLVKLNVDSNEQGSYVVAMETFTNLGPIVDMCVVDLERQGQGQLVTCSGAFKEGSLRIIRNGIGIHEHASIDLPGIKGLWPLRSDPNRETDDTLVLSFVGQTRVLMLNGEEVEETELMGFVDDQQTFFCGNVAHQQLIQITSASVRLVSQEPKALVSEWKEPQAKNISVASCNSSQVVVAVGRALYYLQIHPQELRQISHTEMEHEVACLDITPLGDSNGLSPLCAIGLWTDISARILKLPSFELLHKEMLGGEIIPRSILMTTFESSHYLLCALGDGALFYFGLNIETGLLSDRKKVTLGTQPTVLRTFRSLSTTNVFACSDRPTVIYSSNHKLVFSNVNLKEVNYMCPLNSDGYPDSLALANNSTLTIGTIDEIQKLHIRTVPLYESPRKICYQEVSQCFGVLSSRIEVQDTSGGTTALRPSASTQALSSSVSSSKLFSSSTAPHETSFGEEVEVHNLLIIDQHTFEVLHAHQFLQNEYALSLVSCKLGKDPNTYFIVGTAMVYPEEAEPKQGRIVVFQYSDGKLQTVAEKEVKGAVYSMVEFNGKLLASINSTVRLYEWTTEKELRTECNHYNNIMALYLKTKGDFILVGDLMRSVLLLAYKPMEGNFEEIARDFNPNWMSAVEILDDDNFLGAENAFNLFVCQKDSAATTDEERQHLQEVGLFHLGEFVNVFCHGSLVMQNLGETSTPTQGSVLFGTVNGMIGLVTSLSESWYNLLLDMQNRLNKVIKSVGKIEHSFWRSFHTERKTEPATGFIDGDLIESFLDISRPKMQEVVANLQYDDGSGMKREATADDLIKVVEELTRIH
Assay: GSPT1 HiBit degradation assay
Assay type: cell-based
Conditions: Table 3A; HEK293 LgBiT cells expressing GSPT1_HiBiT, luminescence after 6 hours
Text: Promega developed a HEK293 cell line that constitutively expresses LgBiT protein and GSPT1_HiBiT fusion protein. […] Endurazine, a cell permeable small molecule, is converted by cellular esterases into furimazine, which the luciferase enzyme uses as a substrate to generate luminescence. […] This prevents formation of fully functional luciferase, leading to a loss in luminescence. GSPT1 degradation therefore correlates with a decrease in luminescence and can be measured continuously over time. […]

molecule | obs.value
C=C(F)C(=O)N1CCN(c2nc(OC[C@@H]3C[C@@H](OCC(=O)N(C)CCOCCOCCOCCOCCOCCOCCOCCCCCc4cc(Cl)cc(NC(=O)NCc5ccc6c(c5)CN(C5CCC(=O)NC5=O)C6=O)c4)CN3C)nc3c2CCN(c2cccc4cccc(Cl)c24)C3)C[C@@H]1CC#N (some centres unmarked) | 250 to 5000 nM
COc1cc(N2CCN(C(=O)COCCOCCOCCOCCOCCCCCc3cc(Cl)cc(NC(=O)NCc4ccc5c(c4)CN(C4CCC(=O)NC4=O)C5=O)c3)CC2)ccc1Nc1ncc(Cl)c(Nc2ccccc2P(C)(C)=O)n1 (centres unmarked) | 250 to 5000 nM
CN(C/C=C/C(=O)N1CCN(c2nc(OC[C@@H]3CCCN3C)nc3c2CCN(c2cccc4cccc(Cl)c24)C3)C[C@@H]1CC#N)CCOCCOCCOCCOCCOCCOCCOCCOCCOCCOCCOCCOCCCCCCCCc1cc(Cl)cc(NC(=O)NCc2ccc3c(c2)CN(C2CCC(=O)NC2=O)C3=O)c1 (some centres unmarked) | 250 to 5000 nM
C=CC(=O)Nc1cc(Nc2nccc(-c3cn(C)c4ccccc34)n2)c(OC)cc1N(C)CCN(C)CCOCCOCCOCCOCCOCCOCCOCCOCCOCCOCCOCCCCCc1cc(Cl)cc(NC(=O)NCc2ccc3c(c2)CN(C2CCC(=O)NC2=O)C3=O)c1 (centres unmarked) | 250 to 5000 nM
COc1nn(C)cc1Nc1nc(N2CC(NC(=O)/C=C/CN(C)CCOCCOCCOCCOCCOCCOCCOCCOCCOCCCCCc3cc(Cl)cc(NC(=O)NCc4ccc5c(c4)CN(C4CCC(=O)NC4=O)C5=O)c3)[C@H](F)C2)nc2c1ncn2C (some centres unmarked) | 250 to 5000 nM
C=C(F)C(=O)N1CCN(c2nc(OC[C@@H]3CCCN3CCCOCCOCCOCCOCCOCCOCCOCCCCCc3cc(Cl)cc(NC(=O)NCc4ccc5c(c4)CN(C4CCC(=O)NC4=O)C5=O)c3)nc3c2CCN(c2cccc4cccc(Cl)c24)C3)C[C@@H]1CC#N (some centres unmarked) | 250 to 5000 nM
C=CC(=O)Nc1cc(Nc2nccc(-c3cn(C)c4ccccc34)n2)c(OC)cc1N(C)CCN(C)CCOCCOCCOCCCCCc1cc(Cl)cc(NC(=O)NCc2ccc3c(c2)CN(C2CCC(=O)NC2=O)C3=O)c1 (centres unmarked) | 250 to 5000 nM

In: # get_value(readout='DC50', item= Nc1ncnc2c1c(-c1ccc(Oc3ccccc3)cc1)nn2[C@@H]1CCCN(C(=O)/C=C/COCCOCCOCCOCCOCCOCCOCCOCCOCCCCCCCCc2cc(Cl)cc(NC(=O)NCc3ccc4c(c3)CN(C3CCC(=O)NC3=O)C4=O)c2)C1 (some centres unmarked) )
Out: < 250 nM
